Biological target: Nitric oxide synthase 3 (Bos taurus, UniProt P29473)
Sequence (P29473 whole entry): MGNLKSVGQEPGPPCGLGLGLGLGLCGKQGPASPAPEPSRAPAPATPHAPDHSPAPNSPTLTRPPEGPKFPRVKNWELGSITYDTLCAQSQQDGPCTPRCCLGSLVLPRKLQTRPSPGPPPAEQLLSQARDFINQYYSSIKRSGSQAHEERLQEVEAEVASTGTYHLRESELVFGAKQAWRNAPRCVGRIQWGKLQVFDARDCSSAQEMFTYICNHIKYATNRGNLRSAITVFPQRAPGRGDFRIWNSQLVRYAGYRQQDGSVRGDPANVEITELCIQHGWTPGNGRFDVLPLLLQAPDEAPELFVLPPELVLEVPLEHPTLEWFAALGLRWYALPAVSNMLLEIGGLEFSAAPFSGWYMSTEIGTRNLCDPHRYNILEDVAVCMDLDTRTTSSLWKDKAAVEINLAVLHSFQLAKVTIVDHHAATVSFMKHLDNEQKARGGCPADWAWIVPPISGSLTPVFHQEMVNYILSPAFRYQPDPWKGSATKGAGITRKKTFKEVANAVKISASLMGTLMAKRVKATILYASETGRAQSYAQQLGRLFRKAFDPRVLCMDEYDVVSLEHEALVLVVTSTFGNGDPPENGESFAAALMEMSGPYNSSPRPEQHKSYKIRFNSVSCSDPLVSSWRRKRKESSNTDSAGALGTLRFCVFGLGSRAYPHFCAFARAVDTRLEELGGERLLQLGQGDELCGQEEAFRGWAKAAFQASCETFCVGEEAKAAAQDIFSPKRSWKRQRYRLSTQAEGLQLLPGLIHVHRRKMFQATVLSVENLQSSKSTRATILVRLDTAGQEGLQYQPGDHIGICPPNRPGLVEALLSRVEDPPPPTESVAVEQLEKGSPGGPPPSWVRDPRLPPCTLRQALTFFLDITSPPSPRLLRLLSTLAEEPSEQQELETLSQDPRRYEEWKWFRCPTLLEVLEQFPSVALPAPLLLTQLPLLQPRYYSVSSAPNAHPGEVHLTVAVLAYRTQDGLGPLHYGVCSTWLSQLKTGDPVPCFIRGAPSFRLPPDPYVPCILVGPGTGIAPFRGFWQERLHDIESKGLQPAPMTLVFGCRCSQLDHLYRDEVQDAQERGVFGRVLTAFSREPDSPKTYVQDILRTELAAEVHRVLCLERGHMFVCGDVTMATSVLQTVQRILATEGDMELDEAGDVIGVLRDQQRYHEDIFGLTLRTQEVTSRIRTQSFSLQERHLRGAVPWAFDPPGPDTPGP
property_measured: Ki (µM)
Number in µM, nothing else.

Answer with the recorded Ki of Nc1cccc(C[C@@H]2CNC[C@@H]2OCCNCCc2cccc(F)c2)n1 only.
58
